Tested on: intracellular S. flexneri 5a M90T in TC7 cells
Protocol Summary: microbe, parasite or virus in culture
Type: cell-based, Shigella flexneri
Condition Details: TC7 cells infected with GFP-expressing S. flexneri, 14 h treatment, 0.0625 x MIC
Item-by-item account of Fluorescence intensity (RFU), Mean, 0.0625 x MIC
Provide the reading as a plain figure in RFU.

CO[C@H]1/C=C/O[C@@]2(C)Oc3c(C)c(O)c4c(O)c(c(/C=N/N=C/N5CCCCC5)c(O)c4c3C2=O)NC(=O)/C(C)=C\C=C\[C@H](C)[C@H](O)[C@@H](C)[C@@H](O)[C@@H](C)[C@H](OC(C)=O)[C@@H]1C : 8508.25
CC(=O)[O][Pt]([NH2])([Cl])([Cl])([NH]C1CCCCC1)[O]C(C)=O : 9460.97
CCC(=O)O[C@@H]1CC(=O)O[C@H](C)C/C=C/C=C/[C@H](O)[C@H](C)C[C@H](CC=O)[C@H](O[C@@H]2O[C@H](C)[C@@H](O[C@H]3C[C@@](C)(O)[C@@H](OC(=O)CC)[C@H](C)O3)[C@H](N(C)C)[C@H]2O)[C@H]1OC : 9401.53

Please find the next compound below.
Exam item: # get_value(readout='Fluorescence intensity (RFU), Mean, 0.0625 x MIC', item= CO[C@@H]1[C@@H](O[C@@H]2O[C@H](C)[C@@H](O[C@H]3C[C@@](C)(O)[C@@H](OC(=O)CC(C)C)[C@H](C)O3)[C@H](N(C)C)[C@H]2O)[C@@H](CC=O)C[C@@H](C)[C@@H](O)/C=C/C=C/C[C@@H](C)OC(=O)C[C@H]1OC(C)=O )
Marked response: 8835.42

The reported measurements were obtained from paper PMC11992225.
